test: NCI Yeast Anticancer Drug Screen. Data for the mec2-1 strain (AID 157); details: S. cerevisiae mec2-1 strain, at 50.0 µM (retest, dose inferred, filed as 5.0), stronger effect = higher value
About 79,000 compounds went through this panel and 15% of them were active in at least one assay; those are over-represented in the sample as a whole. Where a SMILES comes first, the peptide text is derived from it.
Mark MET for reported growth inhibition of 30% or greater; mark NOT MET for anything smaller.

Worked examples, 8 compounds total:
COMPOUND: CS(=O)(=O)OCCN(CCOS(C)(=O)=O)c1ccc(C=Nc2ccc(-c3csc(Cc4ccccc4)n3)cc2)c(Cl)c1
CLASS: MET
//
COMPOUND: COC1CC2CCC(C)[C@](O)(O2)C(=O)C(=O)N2CCCCC2C(=O)OC(C(C)CC2CCC(O)C(OC)C2)CC(=O)C(C)C=C(C)C(OC(=O)CN(C)C)C(OC)C(=O)C(C)CC(C)/C=C/C=C/C=C\1C (some centres not stated)
CLASS: MET
//
COMPOUND: O=C1c2ccccc2C(=O)N1CC[P+](c1ccccc1)(c1ccccc1)c1ccccc1
CLASS: MET
//
COMPOUND: CC(C)C(NC(=O)C(N)CCC(=O)O)C(=O)O (stereo not drawn) (H-Glu-Val-OH; configuration not given here)
CLASS: NOT MET
//
COMPOUND: CCOC(=O)C(Cc1ccccc1[N+](=O)[O-])C(=O)OCC
CLASS: NOT MET
//
COMPOUND: Nc1nc(N)c2c(Cl)c(CNc3ccc(Cl)c(Cl)c3)ccc2n1
CLASS: MET
//
COMPOUND: O=C(CC1(O)C(=O)Nc2ccccc21)c1ccc(Cl)c(Cl)c1 (configuration not stated)
CLASS: NOT MET
//
COMPOUND: C/C(=N\NC(=S)N1CCN(c2ccccn2)CC1)c1nccs1
CLASS: MET

Q: Check the entry Cc1cccc2c1Oc1cc(Cl)ccc1C2NC(=O)CCN1CCCCC1 (configuration not stated) : does growth inhibition equal or exceed 30%?
A: NOT MET

Q: Check the entry COc1cc2c3c(c1)SCCC(=O)N3CCN2 : does growth inhibition equal or exceed 30%?
A: NOT MET

Q: Check the entry COc1ccc(N/N=C(\CCN(C)C)c2ccccc2)cc1 : does growth inhibition equal or exceed 30%?
A: MET

Q: Check the entry Nc1ccc([N+](=O)[O-])c(S(=O)(=O)O)c1 : does growth inhibition equal or exceed 30%?
A: NOT MET

Q: Check the entry Nc1cc(Cl)c(S(=O)(=O)O)cc1Cl : does growth inhibition equal or exceed 30%?
A: MET

Q: Check the entry CCC(C)[P+](c1ccccc1)(c1ccccc1)c1ccccc1 (configuration not stated) : does growth inhibition equal or exceed 30%?
A: MET

Q: Check the entry CCOc1ccc(NC(=O)C(=O)NO)cc1 : does growth inhibition equal or exceed 30%?
A: MET

Q: Check the entry O=C(CC(=O)CC(O)(c1ccccc1)c1ccccc1)CC(=O)c1ccccc1 : does growth inhibition equal or exceed 30%?
A: MET

Q: Check the entry BrC(c1cccc2ccccc12)c1cccc2ccccc12 : does growth inhibition equal or exceed 30%?
A: MET

---

assay: NCI Yeast Anticancer Drug Screen. Data for the mec2-1 strain (AID 157); details: S. cerevisiae mec2-1 strain, at 5.0 µM (retest, dose inferred, filed as 0.5)
The panel holds about 79,000 compounds, 15% with a hit somewhere; the sample as a whole holds those more often. Active and inactive are the calls of the source. Rule as the data show it: active = growth inhibition above about 70%; inactive = the rest.
Entry note: the call must match one of 1 (active), -1 (inactive)

COMPOUND: O=C1C(CN2CCCCC2)CCCC1CN1CCCCC1 (stereo not drawn)
CLASS: -1

COMPOUND: Cc1ccc(S(=O)(=O)N/N=C2/C(=O)c3cccc4cccc2c34)cc1
CLASS: -1

COMPOUND: CCCC1=CCCC1
CLASS: -1

COMPOUND: CS(=O)(=O)OCCN(CCOS(C)(=O)=O)c1ccc(C=Nc2ccc(-c3csc(Cc4ccccc4)n3)cc2)c(Cl)c1
CLASS: -1

Q: Name the outcome recorded for O=c1cc[nH]cc1 in the assay.
A: -1

Q: Name the outcome recorded for CC(C)CC(Nc1c(O)ccc2ccccc12)C(=O)O (stereo not drawn) in the assay.
A: -1

Q: Name the outcome recorded for N#CC(=C1C=CC(=NOC(=O)Nc2cccc3ccccc23)C=C1)c1ccccc1 in the assay.
A: -1

---

assay: NCI Yeast Anticancer Drug Screen. Data for the mec2-1 strain (AID 157); conditions: S. cerevisiae mec2-1 strain, at 50.0 µM, stronger effect = higher value
About 79,000 compounds went through this panel and 15% of them were active in at least one assay; those are over-represented in the sample as a whole.
MEASURE_NAME: growth inhibition (%)
Express the result in % but write the number alone.

COMPOUND: COc1cccc(NC(=S)N2CCCCC2)c1
UNIT_ABBREV: %
VAL: -0.45

Please fill in: growth inhibition reported for O=C(CC1(O)C(=O)Nc2ccccc21)c1ccc(Cl)c(Cl)c1 (stereo not drawn) = 39

Please fill in: growth inhibition reported for COC(=O)c1ccc(O)c(OC)c1 = -2.35

---

test: NCI Yeast Anticancer Drug Screen. Data for the mec2-1 strain (AID 157); details: S. cerevisiae mec2-1 strain, at 50.0 µM (retest, dose inferred, filed as 5.0), stronger effect = higher value
This is part of a sample that, as a whole, favours compounds with a hit. Of some 79,000 tested, about 15% had one in any assay.
Mark met for reported growth inhibition of 80% or greater; mark not met for anything smaller.

Worked examples, 3 compounds total:
STRUCTURE: O=C1C(=Cc2c[nH]c3ccccc23)C(=O)c2ccccc21
CLASS: met

STRUCTURE: COc1ccc2nc(C)cc(NCCCCCCCCCNc3cc(C)nc4ccc(OC)cc34)c2c1
CLASS: met

STRUCTURE: CCOc1ccc(NC(=O)/C(=C\c2ccc(C)cc2)C(C)=O)cc1
CLASS: not met

Q: Check the entry Cc1cc(C)nc(NS(=O)(=O)c2ccc(Nc3c4ccccc4nc4c(C(=O)NCCCN(CCO)CCO)cccc34)cc2)n1 : does growth inhibition equal or exceed 80%?
A: not met

Q: Check the entry COC(=O)c1nnn(-c2ccc(S(N)(=O)=O)cc2)c1N : does growth inhibition equal or exceed 80%?
A: not met

---

# reported growth inhibition; entries follow
Test: NCI Yeast Anticancer Drug Screen. Data for the rad50 strain (AID 155);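 note: 0% = growth of vehicle-only cultures of the same strain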
Settings: S. cerevisiae rad50 strain growth inhibition; at 50.0 µM (retest, dose inferred, filed as 5.0); stronger effect = higher value
Description: Growth inhibition of yeast strains with defined genetic alterations is measured as a screen for potential anti-cancer activity. Selected strains with alterations in DNA damage repair or cell cycle control were exposed to compounds and growth inhibition was measured relative to vehicle treated controls. The strain used in this assay is rad50
This is part of a sample that, as a whole, favours compounds with a hit. Of some 79,000 tested, about 15% had one in any assay.
Express the result in % but write the number alone.

# example entries with known answers
COMPOUND: OC1CCC(O)CC1 (centres undefined)
VAL: 42
//
COMPOUND: Nc1cc2ccccc2cc1Br
VAL: 73
//
COMPOUND: CC1=C(C(=O)Nc2c(C)cccc2C)C(c2ccc3c(c2)OCO3)C(C(=O)Nc2c(C)cccc2C)=C(C)N1
VAL: 25
//
COMPOUND: CCCCCCCCCCCCc1ccc(S(=O)(=O)O)cc1.[Cu+2]
VAL: 88

Please fill in: growth inhibition reported for CCSSc1ccccc1C(=O)NC(CC)CO (centres undefined) = 59

Please fill in: growth inhibition reported for Clc1nc(Cl)c(Cl)c(Cl)n1 = 98

Please fill in: growth inhibition reported for CNC(=O)N(C)CN(C)C(=O)NC = 9

Please fill in: growth inhibition reported for CN(C)CCC(=O)c1cccc([N+](=O)[O-])c1 = 85

Please fill in: growth inhibition reported for CCCCCC(C)c1ccc(O)c(C)c1 (centres undefined) = 94

Please fill in: growth inhibition reported for O=C(O)c1ccccc1C(=O)O = 8

Please fill in: growth inhibition reported for CCOC(=O)[C@H]1Nc2ccc([N+](=O)[O-])cc2C2c3ccccc3CC21 (some centres undefined) = 91

Please fill in: growth inhibition reported for Cc1nnc(S(=O)(=O)c2ccc(N=Nc3c(N)nc(N)nc3N)cc2)s1 = 20

Please fill in: growth inhibition reported for C1=C(CN2CCCCC2)COc2ccccc21 = 30

Please fill in: growth inhibition reported for C=C1C(=O)OC2CC(C)C3C4OC4C(O)C3(C)C(O)C12 (centres undefined) = 0

Please fill in: growth inhibition reported for CC1(C)C(c2ccccc2)=Nc2ccccc21 = 36

Please fill in: growth inhibition reported for O=C(NC(C(=O)O)c1ccccc1)OCc1ccccc1 (centres undefined) = -3

Please fill in: growth inhibition reported for CCOC(=O)c1ccc(NCc2ccc3ccccc3n2)cc1 = 15

Please fill in: growth inhibition reported for O=C1C=C(c2c(O)ccc3ccccc23)c2ccccc2C1=O = 98

Please fill in: growth inhibition reported for O=C1OC2=C(c3ccccc3)CCCC2C1=O (centres undefined) = 88

Values from PubChem BioAssay (NCI)
